target: IDH1 R132H (Homo sapiens, UniProt O75874, R132H); test: In vitro assay for IDH1 R132H inhibitors (NADPH/aKG, resazurin detection); format: biochemical; conditions: Table 4B; 0.2 μg/ml IDH1 R132H, 50 minutes at room temperature; read-out: IC50, IDH1 R132H Inhibition
Sequence (O75874 whole entry R132H): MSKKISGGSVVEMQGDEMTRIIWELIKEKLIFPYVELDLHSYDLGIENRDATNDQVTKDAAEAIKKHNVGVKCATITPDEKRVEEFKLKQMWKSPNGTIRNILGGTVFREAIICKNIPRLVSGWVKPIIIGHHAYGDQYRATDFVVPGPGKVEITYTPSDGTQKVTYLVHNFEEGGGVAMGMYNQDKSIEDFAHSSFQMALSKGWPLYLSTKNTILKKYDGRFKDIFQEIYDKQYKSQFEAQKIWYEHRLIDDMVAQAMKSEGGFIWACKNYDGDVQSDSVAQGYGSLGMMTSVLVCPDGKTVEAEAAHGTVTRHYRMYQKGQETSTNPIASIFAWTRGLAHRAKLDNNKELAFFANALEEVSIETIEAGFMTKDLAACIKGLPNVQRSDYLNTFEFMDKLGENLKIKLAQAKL
pIC50: −log10 of the molar value.
Entries and their pIC50 values follow.

Solved cases below.
COMPOUND: Cc1ccccc1C(C(=O)NC1CCCCC1)N(C(=O)Cn1ccnc1C)c1ccn(C)n1 (stereo not drawn) [Compound 246]
TARGET: IDH1 R132H (Homo sapiens, UniProt O75874, R132H)
RECORDED METRIC: pIC50
RESULT: 6.00 to 7.00

COMPOUND: Cc1ccccc1C(C(=O)NC1CCCCC1)N(C(=O)COCc1ccncc1)c1cccc(F)c1 (stereo not drawn) [Compound 229]
TARGET: IDH1 R132H (Homo sapiens, UniProt O75874, R132H)
RECORDED METRIC: pIC50
RESULT: 6.00 to 7.00

COMPOUND: Cc1ccccc1C(C(=O)NC1CCC1)N(C(=O)Cc1cccs1)c1cccc(F)c1 (stereo not drawn) [Compound 178]
TARGET: IDH1 R132H (Homo sapiens, UniProt O75874, R132H)
RECORDED METRIC: pIC50
RESULT: 6.00 to 7.00

COMPOUND: COC(=O)N1CCN(CC(=O)N(Cc2cccs2)C(C(=O)NC2CCCCC2)c2ccccc2C)CC1 (stereo not drawn) [Compound 208]
TARGET: IDH1 R132H (Homo sapiens, UniProt O75874, R132H)
RECORDED METRIC: pIC50
RESULT: 6.00 to 7.00

COMPOUND: Cc1ccc(F)c(C(C(=O)NC2CCCCC2)N(C(=O)Cc2cccs2)c2cccc(F)c2)c1 (stereo not drawn) [Compound 127]
TARGET: IDH1 R132H (Homo sapiens, UniProt O75874, R132H)
RECORDED METRIC: pIC50
RESULT: 6.00 to 7.00

[in] // returns reported pIC50 for input Cc1ccccc1C(C(=O)NC1CCCCC1)N(C(=O)CNc1cncc(F)c1)c1cccc(F)c1 (stereo not drawn) [Compound 310]
[out] 6.00 to 7.00

====

Measured IC50 by item
target: IDH1 R132H (Homo sapiens, UniProt O75874, R132H); experiment: In vitro assay for IDH1 R132H inhibitors (NADPH/aKG, resazurin detection); format: biochemical; settings: Table 4B; 0.2 μg/ml IDH1 R132H, 50 minutes at room temperature; read-out: IC50, IDH1 R132H Inhibition

Illustrative cases are given below, each with its answer.
COMPOUND: Cc1ccccc1C(C(=O)NC1CCCCC1)N(C(=O)CNC1CCCCC1O)c1cccc(F)c1 (stereo not shown) [Compound 180]
IC50: 100 to 1000 nM
//
COMPOUND: Cc1ccccc1C(C(=O)NC1CCCCC1)N(C(=O)Cc1cccnc1)c1cccc(F)c1 (stereo not shown) [Compound 288]
IC50: ≤ 100 nM
//
COMPOUND: Cc1nccn1CC(=O)N(c1cccc(F)c1)C(C(=O)NC1CCCCC1)c1ccccc1Cl (stereo not shown) [Compound 314]
IC50: ≤ 100 nM
//
COMPOUND: Cc1ccccc1C(C(=O)NC1CCCCC1)N(C(=O)COc1ccc(F)cn1)c1cccc(F)c1 (stereo not shown) [Compound 260]
IC50: ≤ 100 nM
//
COMPOUND: Cc1ccccc1C(C(=O)NC1CCCCC1)N(C(=O)COC1CCOCC1)c1cccc(F)c1 (stereo not shown) [Compound 259]
IC50: 100 to 1000 nM

[in] Consider the compound Cc1ccccc1C(C(=O)NC1CCCCC1)N(C(=O)Cn1cnc2ccccc21)c1ccn(C)n1 (stereo not shown) [Compound 255] and give its measured IC50.
[out] 100 to 1000 nM

[in] Repeat with Cc1ccccc1C(C(=O)NC1CCCCC1)N(Cc1cccs1)C(=O)CNc1ccc(C#N)cc1 (stereo not shown) [Compound 228]
[out] ≤ 100 nM

[in] Ok, now O=C(NC1CCCCC1)C(c1c(Br)ccc(Br)c1F)N(C(=O)Cc1cccs1)c1cccc(F)c1 (stereo not shown) [Compound 114]
[out] 100 to 1000 nM

[in] Here is the next compound: Cc1ccccc1C(C(=O)NC1CCCCC1)N(C(=O)Cn1cnc2cnccc21)c1cccc(F)c1 (stereo not shown) [Compound 266]
[out] 100 to 1000 nM

[in] Proceed to COC(=O)NCC(=O)N(c1ccc(F)c(F)c1)C(C(=O)NC1CCCCC1)c1ccccc1C (stereo not shown) [Compound 358]
[out] 100 to 1000 nM

[in] Please give the result for CCOC(=O)N1CCCC[C@@H]1C(=O)N(c1cccc(F)c1)[C@H](C(=O)NC1CCCCC1)c1ccccc1C [Compound 345] too.
[out] 100 to 1000 nM

[in] Then Cc1ccccc1C(C(=O)NC1CCCCC1)N(C(=O)Oc1ccccc1)c1ccccc1 (stereo not shown) [Compound 392] ?
[out] 100 to 1000 nM

[in] Also check Cc1ccccc1C(C(=O)NC1CCCCC1)N(C(=O)CNCc1ccn(C)n1)c1cccc(F)c1 (stereo not shown) [Compound 256]
[out] 100 to 1000 nM

====

target: IDH1 R132H (Homo sapiens, UniProt O75874, R132H); assay: In vitro assay for IDH1 R132H inhibitors (NADPH/aKG, resazurin detection); assay type: biochemical; settings: Table 4A; 0.2 μg/ml IDH1 R132H, 50 minutes at room temperature; read-out: IC50 (uM), IDH1 R132H Inhibition
IC50: recorded values

[in] Quick check: IC50 of Cc1ccccc1C(C(=O)NC1CCCCCC1)N(C(=O)Cc1cccs1)c1cccc(F)c1 (centres unmarked) [Compound 80] ?
[out] ≤ 0.1 µM

[in] Same lookup for O=C(NC1CCCCC1)C(C1CCCCC1)N(C(=O)Cc1cccs1)c1cccc(F)c1 (centres unmarked) [Compound 63] , please.
[out] 1 to 10 µM

[in] Ok, now Cc1ccccc1N(C(=O)Cc1cccs1)C(C(=O)NC1CCCCC1)c1cccc(F)c1 (centres unmarked) [Compound 13]
[out] 0.1 to 1 µM

[in] Then this compound: Cc1ccccc1C(C(=O)NC1CCCCC1)N(C(=O)CNS(=O)(=O)c1ccccc1)c1cccc(F)c1 (centres unmarked) [Compound 29]
[out] 0.1 to 1 µM

====

target: IDH1 R132H (Homo sapiens, UniProt O75874, R132H); experiment: In vitro assay for IDH1 R132H inhibitors (NADPH/aKG, resazurin detection); type: biochemical; settings: Table 4A; 0.2 μg/ml IDH1 R132H, 50 minutes at room temperature; read-out: IC50 (uM), IDH1 R132H Inhibition
RECORDED METRIC: IC50

COMPOUND: COc1ccccc1C(C(=O)NC1CCCC1)N(C(=O)Cc1cccs1)c1cccc(F)c1 (centres unmarked)
RESULT: 0.1 to 1 µM

COMPOUND: Cc1ccccc1C(C(=O)NC1CCCCC1)N(C(=O)Cc1cccs1)c1ccccc1Br (centres unmarked)
RESULT: 0.1 to 1 µM

COMPOUND: CCOc1ccccc1C(C(=O)NC1CCCCC1)N(C(=O)Cc1cccs1)c1cccc(F)c1 (centres unmarked)
RESULT: 1 to 10 µM

COMPOUND: Cc1cccc(C(C(=O)NC2CCCCC2)N(C(=O)Cc2cccs2)c2cccc(F)c2)c1 (centres unmarked)
RESULT: 0.1 to 1 µM

COMPOUND: O=C(NC1CCCCC1)C(c1ccc(Br)o1)N(C(=O)Cc1cccs1)c1cccc(F)c1 (centres unmarked)
RESULT: 0.1 to 1 µM

COMPOUND: Cc1ccsc1C(C(=O)NC1CCCCC1)N(C(=O)Cc1cccs1)c1cccc(F)c1 (centres unmarked)
RESULT: 0.1 to 1 µM

COMPOUND: Cc1ccccc1[C@H](C(=O)NC1CCCCC1)N(C(=O)Cc1cccs1)c1cccc(F)c1
RESULT: 1 to 10 µM

COMPOUND: O=C(NC1CCCC1)C(c1ccccc1)N(C(=O)Cc1cccs1)c1ccccc1F (centres unmarked)
RESULT: 0.1 to 1 µM

[in] Value lookup for IC50; key = O=C(NC1CCCCC1)C(c1cccc(C(F)(F)F)c1)N(C(=O)Cc1cccs1)c1cccc(F)c1 (centres unmarked)
[out] 1 to 10 µM

[in] Now consider O=C(NC1CCCCC1)C(c1ccccn1)N(C(=O)Cc1cccs1)c1cccc(F)c1 (centres unmarked) and answer again.
[out] 1 to 10 µM

[in] Request: Cc1ccccc1C(C(=O)NC1CCCC1)N(C(=O)Cc1cccs1)c1cccc(F)c1 (centres unmarked)
[out] ≤ 0.1 µM

[in] Same lookup for Cc1ccccc1C(C(=O)NC1CCCCC1)N(C(=O)Cc1cccs1)c1cccc(Cl)c1Cl (centres unmarked) , please.
[out] 1 to 10 µM

[in] Okay, and O=C(NC1CCCCC1)C(c1ccc(C(F)(F)F)cc1)N(C(=O)Cc1cccs1)c1cccc(F)c1 (centres unmarked) ?
[out] ≥ 100 µM

[in] Also O=C(NC1CCCCC1)C(c1ccccc1)N(C(=O)c1ccccn1)c1ccccc1F (centres unmarked) ?
[out] 1 to 10 µM

[in] Same question for COc1cccc(N(C(=O)Cc2cccs2)C(C(=O)NC2CCCC2)c2ccccc2Cl)c1 (centres unmarked) please.
[out] 0.1 to 1 µM

[in] For O=C(NC1CCCCC1)C(c1ccccc1F)N(C(=O)c1ccccn1)c1ccccc1F (centres unmarked) then?
[out] 0.1 to 1 µM

[in] Same thing, different compound: Cc1ccc(C(C(=O)NC2CCCCC2)N(C(=O)Cc2cccs2)c2cccc(F)c2)cc1 (centres unmarked)
[out] 0.1 to 1 µM
